Molecular target: T1, BMPRIa receptor-Fc fusion (UniProt P36894 24-152, limits assumed)
T1 construct: BMP receptor-Fc fusion; also called ALK-3
T1 sequence (P36894 24-152 limits assumed): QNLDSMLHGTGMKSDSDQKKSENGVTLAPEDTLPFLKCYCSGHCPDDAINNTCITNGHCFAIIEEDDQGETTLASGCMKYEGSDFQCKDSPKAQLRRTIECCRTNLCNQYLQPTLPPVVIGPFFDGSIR
Assay: ELISA-like, fixed volume of conditioned media, receptor-Fc
Record form. Attribute: BMPRIa binding relative to wild type. Fill in for each entry.

Query string: Any idea what its BMPRIa binding relative to wild type is? The binder is BMP-7 variant Q53A (ligand) STGGKQRSQNRSKTPKNQEALRMASVAENSSSDQRQACKKHELYVSFRDLGWADWIIAPEGYAAYYCEGECAFPLNSYMNATNHAIVQTLVHFINPETVPKPCCAPTQLNAISVLYFDDSSNVILKKYRNMVVRACGCH
Result string: 0.54 relative to wt = 1.0

Query string: Any idea what its BMPRIa binding relative to wild type is? The binder is BMP-7 variant E60S (ligand) STGGKQRSQNRSKTPKNQEALRMASVAENSSSDQRQACKKHELYVSFRDLGWQDWIIAPSGYAAYYCEGECAFPLNSYMNATNHAIVQTLVHFINPETVPKPCCAPTQLNAISVLYFDDSSNVILKKYRNMVVRACGCH
Result string: 0.74 relative to wt = 1.0

Query string: Any idea what its BMPRIa binding relative to wild type is? The binder is BMP-7 variant R134S (ligand) STGGKQRSQNRSKTPKNQEALRMASVAENSSSDQRQACKKHELYVSFRDLGWQDWIIAPEGYAAYYCEGECAFPLNSYMNATNHAIVQTLVHFINPETVPKPCCAPTQLNAISVLYFDDSSNVILKKYRNMVVSACGCH
Result string: 1.1 relative to wt = 1.0

Query string: Any idea what its BMPRIa binding relative to wild type is? The binder is BMP-7 variant R134L (ligand) STGGKQRSQNRSKTPKNQEALRMASVAENSSSDQRQACKKHELYVSFRDLGWQDWIIAPEGYAAYYCEGECAFPLNSYMNATNHAIVQTLVHFINPETVPKPCCAPTQLNAISVLYFDDSSNVILKKYRNMVVLACGCH
Result string: 1.03 relative to wt = 1.0

Each recorded value in this set is attributed to patent US20060058231A1.
